Test system: MALME-3M melanoma
Test: NCI tumour cell line growth inhibition, 48 h
Would you kindly list TGI for each of these compounds?

Ask: Can you share its TGI? I mean this compound: CC(=O)[CH-]C(=O)c1ccccc1.CC(=O)[CH-]C(=O)c1ccccc1.COc1cccc([O-])c1[O-].[Ti+4]
Result: > 100 µM

Ask: Using the record for COC(=O)Nc1nc2ccc(Oc3ccc4nc(NC(=O)OC)[nH]c4c3)cc2[nH]1 , report its TGI.
Result: > 100 µM

Ask: // lookup TGI for COC(=O)CCC1(C)C2CCC1(C)/C(=N/O)C2 (stereo unspecified)
Result: > 100 µM

Ask: Fill in the blank: the reported TGI of O=c1[nH]c(=O)n(C2CC(O)C(CO)O2)cc1NN=NCCc1ccccc1 (stereo unspecified) is ____.
Result: > 100 µM

Ask: TGI lookup needed for CCOc1cc(-c2nc3ccccn3c2/N=C/c2cc([N+](=O)[O-])cc([N+](=O)[O-])c2O)ccc1O , thanks.
Result: > 100 µM

Ask: # TGI lookup, item Cc1cc(=O)n(-c2ccccc2)c(=O)o1
Result: > 100 µM

Ask: What does the record list as TGI for CN(CCC#N)c1ccc(/C=C(\C#N)c2cccc(C(F)(F)F)c2)cc1 ?
Result: > 100 µM

Ask: Any idea what TGI was measured for CC1(C)OC(=O)[C@@](C)([C@H](O)c2ccccc2)O1 ?
Result: > 100 µM

Ask: Which TGI value belongs to Cc1cc(N2CCN(C)CC2)nc(NCc2cc(Nc3ccnc4cc(Cl)ccc34)ccc2F)n1 ?
Result: 3.89 µM

Ask: What measured TGI goes with CCCCN(CCCC)c1ccc(C(=N)c2ccc(N(C)C)cc2)cc1 ?
Result: 2.23 µM

Ask: I'd like to know its TGI. The compound in question is CCC[C@H](O)[C@@H](CNc1cc(NC(C)=O)nc(NC(C)=O)n1)N(Cc1ccccc1)Cc1ccccc1
Result: > 100 µM

Ask: Looking for the measured TGI of CC(C)(C)[Si](C)(C)OCC1CCC(n2cnc3c(=O)[nH]cnc32)O1 (stereo unspecified) , can you help?
Result: > 100 µM

Ask: I have this compound here, COc1ccc(Cl)cc1Nc1nc(C(F)(F)F)ccc1C(=O)N/N=C/c1ccc([N+](=O)[O-])cc1 , and I need its recorded TGI.
Result: 5.59 µM

Ask: Entry CO[C@H]1O[C@@H]2CO[C@@H](c3ccccc3)O[C@H]2[C@@H]2CC=CCC[C@]12O : reported TGI = ?
Result: 29.3 µM

Ask: Value lookup for TGI; key = CO[C@H]1[C@@H](O)[C@@H](C)O[C@@H](O[C@H]2CC[C@@]3(C)[C@H](CC[C@@H]4[C@@H]3CC[C@]3(C)[C@@H](C5=CC(=O)OC5)CC[C@]43O)C2)[C@@H]1O
Result: 0.00902 µM

Ask: May I ask what TGI has been recorded for Cc1ccc(N/C(Sc2ccccc2)=C(/C(Cl)=C(Cl)Cl)[N+](=O)[O-])c(C)c1 ?
Result: 34 µM

###

System: SF-268 CNS
Test: NCI tumour cell line growth inhibition, 48 h
ENDPOINT: TGI

Ask: Any idea what its TGI is? The compound is COc1ccc(NS(=O)c2ccc(-c3ccccc3)cc2)cc1 (stereo not given)
Result: > 100 µM

Ask: Given the compound CCOc1cc(-c2nc3ccccn3c2/N=C/c2cc([N+](=O)[O-])cc([N+](=O)[O-])c2O)ccc1O , what is its reported TGI?
Result: > 100 µM

Ask: Look up TGI for this compound: COC(=O)C1=C(OC(=O)/C(=C/c2ccc(Cl)cc2Cl)c2ccc(Cl)cc2Cl)C(C(=O)OC)[C@@]2(O)[C@@H](C(=O)OC)[C@H](C)C[C@@H]1[C@@H]2C(=O)OC (stereo not given in full)
Result: > 100 µM

Ask: Looking for the measured TGI of CN(C)CCNc1ccc2ncnc3c2c1C(=O)c1ccccc1-3 , can you help?
Result: 4.48 µM

Ask: Reported TGI, compound O=S(=O)(Nc1cc(Br)c(O)c2ccccc12)c1ccc(F)cc1 : ____
Result: 12.1 µM

Ask: Value lookup for TGI; key = COc1ccc(-c2cc(-c3ccccc3)n(C3OCC(OC(C)=O)C(OC(C)=O)C3OC(C)=O)c(=S)c2C#N)cc1 (stereo not given)
Result: > 100 µM

Ask: Give its TGI value. Item: CC1=NN(c2nc(N)nc(/C(C#N)=C/c3ccc([N+](=O)[O-])o3)n2)C(C)(C)C1
Result: 16.2 µM

Ask: What does the record list as TGI for C#CCSc1nc(N)c2ncn(C3OC(CO)C(O)C3O)c2n1 (stereo not given) ?
Result: > 100 µM

Ask: # TGI lookup, item O=c1[nH]c(=O)n(C2CC(O)C(CO)O2)cc1NN=NCCc1ccccc1 (stereo not given)
Result: > 100 µM

Ask: # get_value(readout='TGI', item= Cc1nc(Cl)c(Cl)c(Cl)n1 )
Result: 4.27 µM

Ask: Would you kindly share the measured TGI for O=c1oc2cc(N=Cc3ccccc3Cl)ccc2c2ccccc12 ?
Result: > 100 µM

Ask: Need TGI, item COc1ccc(N(C)CN(C)c2nc(N(C)C)nc(N(C)C)n2)cc1
Result: > 100 µM

Ask: Item under review: CNC(=O)CCNC(=O)CCC(=O)N(C)C . Reported TGI?
Result: > 100 µM

Ask: Request the reported TGI associated with CCOC(=O)[C@@H]1C[C@H]1c1ccc(O)c(O)c1
Result: > 100 µM

Ask: Value lookup for TGI; key = CC1CC(C)[C@H](O)C([C@H](O)CC2CC(=O)N(C)C(=O)C2)C1 (stereo not given in full)
Result: > 100 µM

Ask: Which TGI value is on record for N=CCCN(CCC=N)c1ccc(/C=C2\CN(NC(=O)c3ccc(Cl)cc3)C(c3ccccc3)=N2)cc1 ?
Result: > 100 µM

Ask: Entry under review: Cc1c(C(=O)CC(=O)C(=O)Nc2c(C(C)C)cccc2C(C)C)[n+](=O)c2ccccc2n1[O-] . Reported TGI?
Result: 25.2 µM

Ask: What measured TGI goes with COC1C(O)C(C)OC(OC2C(Oc3cccc4c(O)c5c(=O)oc6ccc(C)c7c(=O)oc(c34)c5c67)OC(C)C3O[C@H](c4ccccc4)OC32)C1O (stereo not given in full) ?
Result: 5.83 µM

Ask: Which TGI is reported for this compound? CC(=O)[CH-]C(=O)c1ccccc1.CC(=O)[CH-]C(=O)c1ccccc1.COc1cccc([O-])c1[O-].[Ti+4]
Result: > 100 µM

Ask: I'd like to know its TGI. The compound in question is Nc1ccc(-c2ncc3cc(-c4cccc(-c5cc6cnc(-c7ccc(N)cc7)nc6c6ccccc56)c4)c4ccccc4c3n2)cc1
Result: > 100 µM

Ask: // TGI lookup, key: COc1ccc(N)c(C(O)CCNC(C)=O)c1 (stereo not given)
Result: > 100 µM

Ask: Name the reported TGI value associated with the compound O[C@@]1(c2cccs2)c2cccc(Cl)c2[C@](O)(c2cccs2)c2cccc(Cl)c21
Result: 66.8 µM

Ask: Entry under review: COc1cc(-c2n/c(=C\c3c(O)[nH]c4ccc(Cl)cc34)cc3c2=Nc2ccccc2-3)cc(OC)c1OC . Reported TGI?
Result: 3.95 µM

Ask: Quick one: TGI of O=C1CSC(/C=C/c2ccccc2)N1c1ccc(-c2ccc(-n3c(-c4ccccc4)nc4ccccc4c3=O)cc2)cc1 (stereo not given) ?
Result: > 100 µM

Ask: Entry O=C(/C=C/c1ccccc1)c1c[nH]c2ccccc2c1=O : reported TGI = ?
Result: 10.3 µM

Ask: Please give the measured TGI for this compound: CCCCCCCC(=O)OC[C@@H](C[As](=O)(O)O)OC(=O)CCCCCCC
Result: 20.3 µM

Ask: Which measured TGI value corresponds to COC(=O)c1ccc(Oc2nc3ccccc3nc2-c2cccs2)cc1 ?
Result: 66 µM

Ask: Field request: TGI | item: Nc1nc(N)c(C2=CCN(Cc3ccccc3)CC2)c(=O)[nH]1
Result: > 100 µM

Ask: Could you tell me which TGI is on file for CCCCSN1C(=O)c2ccccc2C1=S ?
Result: > 100 µM

Ask: Name the recorded TGI for Nc1nc(Cl)c(N)c(NCC2(CO)CC(Cc3ccccc3)C2)n1 (stereo not given) .
Result: > 100 µM

###

System: SK-MEL-2 melanoma
Assay: NCI tumour cell line growth inhibition, 48 h
ENDPOINT: TGI (µM)
Kindly provide the numeric value in µM only, without the unit symbol.

Ask: Which TGI value is on record for CN(C)CCNc1ccc2ncnc3c2c1C(=O)c1ccccc1-3 ?
Result: 10.8

Ask: What does the data say about its TGI? Entry: Oc1[nH]c2ccccc2c1N=NC(=S)N1CCCCC1
Result: 6.12

Ask: Requested field: TGI. Item: CN(CCC#N)c1ccc(/C=C(\C#N)c2cccc(C(F)(F)F)c2)cc1
Result: 8.11

Ask: Which value of TGI has been reported for C=CCn1c(=O)c2cnc(Nc3ccc(N4CCN(C)CC4)cc3)nc2n1-c1ccc2c(n1)[C@@](O)(CC)CC2 in the records?
Result: 2.44
